# SYSTEM_UNDER_TEST: MC receptor endogenous to Xenopus laevis melanophores (Xenopus laevis)
# METHOD_SUMMARY: cell-based or functional assay
Square brackets hold non-standard residues; d marks the D form. * marks the point of attachment. Benzoyl(4-OMe) = COc1ccc(C(=O)*)cc1; d2Thi = N[C@H](Cc1cccs1)C(=O)O

BINDER: {Benzoyl(4-OMe)}-RKLL[d2Thi]I[dA]-NH2 (SMILES CC[C@H](C)[C@H](NC(=O)[C@@H](Cc1cccs1)NC(=O)[C@H](CC(C)C)NC(=O)[C@H](CC(C)C)NC(=O)[C@H](CCCCN)NC(=O)[C@H](CCCNC(=N)N)NC(=O)c1ccc(OC)cc1)C(=O)N[C@H](C)C(N)=O) [S-162]
MCR Antagonism IC50 nM In Xenopus: 43 nM
--
BINDER: {Benzoyl(4-OMe)}-RKLA[d2Thi]I[dL]-NH2 (SMILES CC[C@H](C)[C@H](NC(=O)[C@@H](Cc1cccs1)NC(=O)[C@H](C)NC(=O)[C@H](CC(C)C)NC(=O)[C@H](CCCCN)NC(=O)[C@H](CCCNC(=N)N)NC(=O)c1ccc(OC)cc1)C(=O)N[C@H](CC(C)C)C(N)=O) [S-165]
MCR Antagonism IC50 nM In Xenopus: 282 nM
--
BINDER: {Benzoyl(4-OMe)}-RKLL[dY]I[dL]-NH2 (SMILES CC[C@H](C)[C@H](NC(=O)[C@@H](Cc1ccc(O)cc1)NC(=O)[C@H](CC(C)C)NC(=O)[C@H](CC(C)C)NC(=O)[C@H](CCCCN)NC(=O)[C@H](CCCNC(=N)N)NC(=O)c1ccc(OC)cc1)C(=O)N[C@H](CC(C)C)C(N)=O) [S-116]
MCR Antagonism IC50 nM In Xenopus: 77 nM

Reference for the values: patent US20020004485A1
